- Tested on: M-CSC-HPMC interaction
- assay_info: Microfluidic perfusion assay of M-CSCs on HPMC-coated channels under shear stress
- Type: cell-based, human
- assay_context: M-CSCs treated before perfusion; result in words
- Procedure: Microfluidic chips were fabricated as described^13. To coat microfluidic channels with selectin recombinant proteins, channels were incubated with 1 μg mL^−1 selectin-Fc recombinant proteins in PBS at 4° C. overnight. […] The motion of cancer spheroids under flow was analyzed offline using Image J (National Institutes of Health) and used for the classification of interactions as described^49. […] Cancer spheroids that remained stationary for more than one frame during recording were determined as adhesion. […]
measured_endpoint: effect on M-CSCs binding/adhesion to HPMCs

>  <compound>
CC(C)(C)c1cc(C=C(C#N)C#N)cc(Br)c1O [AG1024]

>  <target_of_assay>
M-CSC-HPMC interaction

>  <test_value>
marked decrease

$$$$
>  <compound>
O=c1c(-c2ccc(O)cc2)coc2cc(O)cc(O)c12 [genistein]

>  <target_of_assay>
M-CSC-HPMC interaction

>  <test_value>
marked decrease

$$$$

---

- Test system: P-selectin-Fc
- assay_info: Microfluidic perfusion assay of M-CSCs on P-selectin-Fc recombinant protein-coated channels
- Assay type: cell-based
- assay_context: M-CSCs treated before perfusion; result in words
measured_endpoint: effect on M-CSCs binding/adhesion to P-selectin-Fc

>  <compound>
CC(C)(C)c1cc(C=C(C#N)C#N)cc(Br)c1O [AG1024]

>  <target_of_assay>
P-selectin-Fc

>  <test_value>
marked decrease

$$$$
>  <compound>
O=c1c(-c2ccc(O)cc2)coc2cc(O)cc(O)c12 [genistein]

>  <target_of_assay>
P-selectin-Fc

>  <test_value>
marked decrease

$$$$
